- Target under test: T1, huMICA*004 alpha 3-his (human)
- T1 construct: whole construct entry: GS, alpha 3 domain, GNS, His8; also called MICA004.His; MICA*004 alpha3 construct
- T1 chain: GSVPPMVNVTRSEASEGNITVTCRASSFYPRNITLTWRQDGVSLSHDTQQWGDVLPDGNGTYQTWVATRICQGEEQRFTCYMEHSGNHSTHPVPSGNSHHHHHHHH
- Method summary: SPR, Biacore 8K, antibody on Protein A chip
Measured pKd of individual entries
Worth noting: pKd values are minus log10 of concentrations stated in mol/L.

Consider the following illustrative entries.
1D5v4 (antibody, IgG1, V domains shown, humanized variant of 1D5) VH: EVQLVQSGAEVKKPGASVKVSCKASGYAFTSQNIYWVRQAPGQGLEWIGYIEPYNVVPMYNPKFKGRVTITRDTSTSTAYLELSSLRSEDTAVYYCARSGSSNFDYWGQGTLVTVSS VL: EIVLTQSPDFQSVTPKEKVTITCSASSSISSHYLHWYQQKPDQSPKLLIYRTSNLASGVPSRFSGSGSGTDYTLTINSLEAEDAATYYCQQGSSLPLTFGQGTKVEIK : 8.21
13A9v1 (antibody, IgG1, V domains shown, humanized variant of 13A9) VH: EVQLVQSGAEVKKPGASVKVSCKASGYAFTNYLIEWVRQAPGQGLEWIGAINPGSGATNYNEKFKDRVTITADTSTSTAYLELSSLRSEDTAVYYCARFLGNYFDNWGQGTLVTVSS VL: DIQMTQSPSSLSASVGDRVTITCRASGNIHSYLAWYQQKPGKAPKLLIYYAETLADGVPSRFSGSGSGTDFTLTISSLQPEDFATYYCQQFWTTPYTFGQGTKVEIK : 8.08
1D5v1 (antibody, IgG1, V domains shown, humanized variant of 1D5; also called lD5v1) VH: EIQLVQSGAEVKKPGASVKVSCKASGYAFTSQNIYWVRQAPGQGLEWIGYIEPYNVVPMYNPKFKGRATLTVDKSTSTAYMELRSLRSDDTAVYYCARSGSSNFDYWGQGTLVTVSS VL: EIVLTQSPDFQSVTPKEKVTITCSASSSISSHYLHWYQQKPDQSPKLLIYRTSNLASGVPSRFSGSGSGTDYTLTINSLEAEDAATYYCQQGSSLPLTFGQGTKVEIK : 8.93

**Query** # input binder: 1D5v8 (antibody, IgG1, V domains shown, humanized variant of 1D5) VH: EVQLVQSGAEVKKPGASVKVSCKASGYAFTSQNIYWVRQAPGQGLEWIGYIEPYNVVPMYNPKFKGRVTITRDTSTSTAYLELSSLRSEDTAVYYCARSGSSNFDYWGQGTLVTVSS VL: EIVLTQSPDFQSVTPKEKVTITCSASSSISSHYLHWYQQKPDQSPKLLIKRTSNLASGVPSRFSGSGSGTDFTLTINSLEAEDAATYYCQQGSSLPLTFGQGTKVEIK ; wanted: its pKd
**Result** 8.03

**Query** pKd lookup needed for 15F11v5 (antibody, IgG1, V domains shown, humanized variant of 15F11) VH: EIQLVQSGAEVKKPGSSVKVSCKPSGYAFTSNNIYWVRQAPGQGLEWIGYIDPYIGRIIYNQQFKDRATLTVDKSTSTAYMELSSLRSEDTAVYYCSRSGERSNFDYWGQGTLVTVSS VL: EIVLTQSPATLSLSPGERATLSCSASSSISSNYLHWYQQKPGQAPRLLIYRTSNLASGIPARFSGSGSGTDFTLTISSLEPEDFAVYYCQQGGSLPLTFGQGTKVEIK , thanks.
**Result** 8.51

Data provenance is patent US20200055939A1.
